Source listed as paper PMC10805701.

# maps each entry to its kcat
substrate: C[N+](C)(C)[C@@H](Cc1cnc([S+]([O-])C[C@H](N)C(=O)O)[nH]1)C(=O)[O-]; assay: purified protein; format: biochemical, Mycolicibacterium smegmatis; conditions: 50 mM KPi pH 8.0, 25 °C, PLP-loaded enzyme, 1 mM DTT, 0.13 mM NADH
Report field: quantity (unit follows the number).

Consider the following illustrative entries.
protein="MsEgtE (Mycolicibacterium smegmatis MC2 155; R202K) (protein, full-length ORF, pET28a N-terminal hexa-histidine tag, E. coli BL21 (DE3); homodimer (~76 kDa by SEC, predicted 78 kDa)) MMLAQQWRDARPKVAGLHLDSGACSRQSFAVIDATTAHARHEAEVGGYVAAEAATPALDAGRAAVASLIGFAASDVVYTSGSNHAIDLLLSSWPGKRTLACLPGEYGPNLSAMAANGFQVRALPVDDDGRVLVDEASHELSAHPVALVHLTALASHRGIAQPAAELVEACHNAGIPVVIDAAQALGHLDCNVGADAVYSSSKKWLAGPRGVGVLAVRPELAERLQPRIPPSDWPIPMSVLEKLELGEHNAAARVGFSVAVGEHLAAGPTAVRERLAEVGRLSRQVLAEVDGWRVVEPVDQPTAITTLESTDGADPASVRSWLIAERGIVTTACELARAPFEMRTPVLRISPHVDVTVDELEQFAAALREAP" readout_name=kcat value_measured="0.03 ± 0.01 s⁻¹"
protein="MsEgtE (Mycolicibacterium smegmatis MC2 155; Q183A) (protein, full-length ORF, pET28a N-terminal hexa-histidine tag, E. coli BL21 (DE3); homodimer (~76 kDa by SEC, predicted 78 kDa)) MMLAQQWRDARPKVAGLHLDSGACSRQSFAVIDATTAHARHEAEVGGYVAAEAATPALDAGRAAVASLIGFAASDVVYTSGSNHAIDLLLSSWPGKRTLACLPGEYGPNLSAMAANGFQVRALPVDDDGRVLVDEASHELSAHPVALVHLTALASHRGIAQPAAELVEACHNAGIPVVIDAAAALGHLDCNVGADAVYSSSRKWLAGPRGVGVLAVRPELAERLQPRIPPSDWPIPMSVLEKLELGEHNAAARVGFSVAVGEHLAAGPTAVRERLAEVGRLSRQVLAEVDGWRVVEPVDQPTAITTLESTDGADPASVRSWLIAERGIVTTACELARAPFEMRTPVLRISPHVDVTVDELEQFAAALREAP" readout_name=kcat value_measured="0.23 ± 0.04 s⁻¹"
protein="MsEgtE (Mycolicibacterium smegmatis MC2 155) (protein, full-length ORF, pET28a N-terminal hexa-histidine tag, E. coli BL21 (DE3); homodimer (~76 kDa by SEC, predicted 78 kDa)) MMLAQQWRDARPKVAGLHLDSGACSRQSFAVIDATTAHARHEAEVGGYVAAEAATPALDAGRAAVASLIGFAASDVVYTSGSNHAIDLLLSSWPGKRTLACLPGEYGPNLSAMAANGFQVRALPVDDDGRVLVDEASHELSAHPVALVHLTALASHRGIAQPAAELVEACHNAGIPVVIDAAQALGHLDCNVGADAVYSSSRKWLAGPRGVGVLAVRPELAERLQPRIPPSDWPIPMSVLEKLELGEHNAAARVGFSVAVGEHLAAGPTAVRERLAEVGRLSRQVLAEVDGWRVVEPVDQPTAITTLESTDGADPASVRSWLIAERGIVTTACELARAPFEMRTPVLRISPHVDVTVDELEQFAAALREAP" readout_name=kcat value_measured="2.08 ± 0.25 s⁻¹"

input: Name the reported kcat value associated with the protein MsEgtE (Mycolicibacterium smegmatis MC2 155; Y106F) (protein, full-length ORF, pET28a N-terminal hexa-histidine tag, E. coli BL21 (DE3); homodimer (~76 kDa by SEC, predicted 78 kDa)) MMLAQQWRDARPKVAGLHLDSGACSRQSFAVIDATTAHARHEAEVGGYVAAEAATPALDAGRAAVASLIGFAASDVVYTSGSNHAIDLLLSSWPGKRTLACLPGEFGPNLSAMAANGFQVRALPVDDDGRVLVDEASHELSAHPVALVHLTALASHRGIAQPAAELVEACHNAGIPVVIDAAQALGHLDCNVGADAVYSSSRKWLAGPRGVGVLAVRPELAERLQPRIPPSDWPIPMSVLEKLELGEHNAAARVGFSVAVGEHLAAGPTAVRERLAEVGRLSRQVLAEVDGWRVVEPVDQPTAITTLESTDGADPASVRSWLIAERGIVTTACELARAPFEMRTPVLRISPHVDVTVDELEQFAAALREAP
output: 0.32 ± 0.02 s⁻¹
